- target_or_test_system: rice GSNOR (Oryza sativa, UniProt Q0DWH1)
- Sequence (Q0DWH1 whole entry): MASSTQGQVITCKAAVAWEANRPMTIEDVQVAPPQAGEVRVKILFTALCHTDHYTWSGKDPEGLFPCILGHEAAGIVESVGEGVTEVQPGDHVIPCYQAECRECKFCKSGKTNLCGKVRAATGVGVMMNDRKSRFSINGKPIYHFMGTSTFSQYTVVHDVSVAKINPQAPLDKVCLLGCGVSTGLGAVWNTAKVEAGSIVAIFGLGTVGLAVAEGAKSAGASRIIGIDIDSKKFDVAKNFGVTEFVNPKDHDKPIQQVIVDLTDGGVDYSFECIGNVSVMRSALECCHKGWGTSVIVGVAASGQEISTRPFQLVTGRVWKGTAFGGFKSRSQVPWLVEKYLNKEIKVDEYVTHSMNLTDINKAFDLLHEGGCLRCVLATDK
readout: Kd (µM)
Give the value, in units of µM, as a plain number.

Q: Look up rice GSNOR (Oryza sativa, UniProt Q0DWH1) data: Kd of Cc1cc(C(N)=O)ccc1-n1c(CCC(=O)O)ccc1-c1ccc(-n2ccnc2)cc1 , then report it.
Result: 288

###

- target_or_test_system: UniProtKB G4N4N6
- Sequence (G4N4N6 1-381): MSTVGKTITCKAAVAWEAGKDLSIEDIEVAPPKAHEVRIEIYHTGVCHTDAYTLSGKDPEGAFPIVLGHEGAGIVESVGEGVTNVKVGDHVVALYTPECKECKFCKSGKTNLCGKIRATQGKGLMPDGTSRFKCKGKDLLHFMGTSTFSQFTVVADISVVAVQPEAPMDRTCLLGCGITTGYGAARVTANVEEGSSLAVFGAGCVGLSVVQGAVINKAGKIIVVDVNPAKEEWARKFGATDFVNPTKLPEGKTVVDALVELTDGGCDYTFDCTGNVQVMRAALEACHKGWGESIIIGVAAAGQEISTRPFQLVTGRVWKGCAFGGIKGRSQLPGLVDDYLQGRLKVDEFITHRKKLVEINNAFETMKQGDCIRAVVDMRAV
readout: Kd (µM)
Give the value, in units of µM, as a plain number.

Q: Look up and report measured Kd for this entry: Cc1cc(C(N)=O)ccc1-n1c(CCC(=O)O)ccc1-c1ccc(-n2ccnc2)cc1
Result: 55.8
